src = PubChem BioAssay (NCI)

# Tested on: UACC-257 melanoma
# Protocol description: NCI tumour cell line growth inhibition, 48 h
Assay metric: TGI

C/C(=N\NS(=O)(=O)c1c(C)cc(C)cc1C)c1ccc[n+]([O-])n1 = 22.7 µM
CC1OC(OC2C[C@](O)(C(=O)CBr)Cc3c(O)c4c(c(O)c32)C(=O)c2ccccc2C4=O)C(F)C(O)C1O (stereo partly specified) = 39.6 µM
COc1cc(=O)oc(/C=C/C=C/C=C/C(C)=C\C2(C)OC(C)C(C)(O)C2O)c1C (stereo unspecified) = > 100 µM
C=COC(=O)N1C2CCCC(Cl)(C(C)=O)C1CC2 (stereo unspecified) = > 100 µM
CC1(C)CN=C(Nc2ccc(F)c(Cl)c2)S1 = > 100 µM
O=c1oc2ccccc2n1CCCn1c(=O)oc2ccccc21 = > 100 µM
O=C1/C(=C\c2cccc(Oc3ccccc3)c2)SC(c2ccccc2)N1c1cccc(Cl)c1 (stereo unspecified) = > 100 µM
Nc1nc(CC2(O)CCCCC2)cc(-c2ccccc2)n1 = > 78.1 µM
COc1ncc(C#CC(=O)c2ccccc2)c(OC)n1 = 14.7 µM
C(/C=C/Nc1ccc(-c2ccccc2)cc1)=Nc1ccc(-c2ccccc2)cc1 = > 100 µM
COc1ccc(NS(=O)(=O)c2ccc(N=C3C=C(Nc4ccc(S(=O)(=O)Nc5ccc(OC)nn5)cc4)C(=O)c4ccccc43)cc2)nn1 = 35.8 µM
C[C@H](CO)C1=CC(C#C[Si](C)(C)C)N(C(=O)Oc2ccccc2)c2ccccc21 (stereo partly specified) = 28.3 µM
Cc1c(C#N)c(N)n(C2OC(CO)C(O)C(O)C2O)c(=S)c1C#N (stereo unspecified) = > 100 µM
O=C(O)CNC(=O)C1NC(C(F)(F)F)(C(F)(F)F)OC1(C(F)(F)F)C(F)(F)F (stereo unspecified) = > 100 µM
O=C1CN(c2ccccc2)C(=O)CN1CCN1CC(=O)N(c2ccccc2)CC1=O = > 100 µM
Cc1ccccc1C[P+](c1ccccc1)(c1ccccc1)c1ccccc1 = 4.65 µM
N.N.NCCCCCN.O=C([O-])CC(=O)[O-].O=C([O-])CC(=O)[O-].[Pt+4].[Pt+4] = > 100 µM
COc1ccc2c(c1)c(=O)c1c(NCCCN(C)C)ccc3ncn2c31 = 27 µM
CCCCSC1=N/C(=C\c2ccc(N(C)C)cc2)C(Cl)=N1 = > 100 µM
COc1cc2c3c(c1OC)C(=O)C(=O)C1=C3N(CCC1)CC2 = 67 µM
CCNC1=C(NC(=O)CCl)C(=O)c2ccccc2C1=O = > 10 µM
